Target: RPS6KA3 KD1 KD2 (human)
Assay: radiometric filter-binding kinase assay
Details: compound 1.0 µM; ATP 50 µM
Rule: measured residual activity below 80% gets Y; anything equal to or greater than 80% gets N.

Use these answered entries as a reference point.
INSERT INTO assay_data (compound, target_under_test, assigned_class) VALUES
  ('CO[C@H]1CC2CC[C@@H](C)[C@@](O)(O2)C(=O)C(=O)N2CCCC[C@H]2C(=O)OC([C@H](C)C[C@@H]2CC[C@@H](O)[C@H](OC)C2)CC(=O)[C@H](C)/C=C(\C)[C@@H](O)[C@@H](OC)C(=O)[C@H](C)C[C@H](C)/C=C/C=C/C=C/1C (stereo partly specified)', 'RPS6KA3 KD1 KD2 (human)', 'N'),
  ('COc1ccc2c(c1)=NC1=C(C)NCCC=21', 'RPS6KA3 KD1 KD2 (human)', 'N'),
  ('O=S(=O)(NCCNC/C=C/c1ccc(Br)cc1)c1cccc2cnccc12', 'RPS6KA3 KD1 KD2 (human)', 'Y'),
  ('O=C1c2ccccc2-c2n[nH]c3cccc1c23', 'RPS6KA3 KD1 KD2 (human)', 'Y');

Turning now to a further compound:
### Prompt Could you please tell me whether residual activity recorded for `COC[C@H]1OC(=O)c2coc3c2[C@@]1(C)C1=C(C3=O)[C@@H]2CCC(=O)[C@@]2(C)C[C@H]1OC(C)=O` is less than 80%?
### Response N

Data provenance is the kinase profiling compilation of Christmann-Franck et al. (2016).
